Molecular target: human GPR40 (Homo sapiens)
Construct: The resulting fragment (ca. 1 kb) was introduced into vector pAKKO-111, which was used for transfection of CHO cells; expressed in transfected cells
Sequence (O14842 whole entry, the tested form may be a part): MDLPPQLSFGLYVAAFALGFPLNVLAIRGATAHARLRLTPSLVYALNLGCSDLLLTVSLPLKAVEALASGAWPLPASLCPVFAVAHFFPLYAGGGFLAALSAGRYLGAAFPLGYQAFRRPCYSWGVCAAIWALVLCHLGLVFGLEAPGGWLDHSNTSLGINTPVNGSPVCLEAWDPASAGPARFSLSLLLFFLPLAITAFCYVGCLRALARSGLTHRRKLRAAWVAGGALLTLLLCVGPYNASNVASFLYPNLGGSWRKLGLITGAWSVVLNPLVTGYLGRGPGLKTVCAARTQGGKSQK
Test: EC50 by FLIPR calcium assay in CHO cells stably expressing human GPR40
Type: cell-based
Measurement type: pEC50
pEC50 here: minus log base 10 of the concentration, concentration in moles per litre.

In plain terms, CC/C=C\C/C=C\C/C=C\CCCCCCCC(=O)O has a documented pEC50 of 5.70

====

Documented EC50 across a set of compounds
Biological target: human GPR40 (Homo sapiens)
Construct: The resulting fragment (ca. 1 kb) was introduced into vector pAKKO-111, which was used for transfection of CHO cells; expressed in transfected cells
Experiment: EC50 by FLIPR calcium assay in CHO cells stably expressing human GPR40
Format: cell-based
Settings: intracellular calcium, FLIPR, stable CHO line; read-out: EC50 Human GPR40

| Compound structure string | EC50 |
| --- | --- |
| CC/C=C\C/C=C\C/C=C\C/C=C\C/C=C\CCCC(=O)O | 2300 nM |
| CCCCCCCC/C=C\CCCCCCCC(=O)O | 2000 nM |
| CCCCCCCCCCCCCCCC(=O)O | 6800 nM |

Attention now turns to another entry.
In plain terms, CCCCCCCC(=O)O has a documented EC50 of > 300000 nM

These entries and their values trace back to patent US7214495B2.
